B1: Activity-dependent neuroprotector homeobox protein, residues 770 to 810; numbered along this chain, Q9H2P0 (parent)
chain: FLTKYFNKQPYPTRREIEKLAASLWLWKSDIASHFSNKRKK

- Variants of: B1
- MEASUREMENT PROTOCOL: abundance fitness (aPCA) (normalised: wild type 0, dead -1); higher = more abundant; growth selection in yeast, the domain comes from the species named
- EXPERIMENTAL PARAMETERS: Homo sapiens
# reported abundance fitness; entries follow
Lab note: jot down the number only; don't add units.

Query: I have this variant here, FLTKYFNKQPHPTRREIEKLAASLWLWKSDIASHFSNKRKK [Y11H] , and I need its recorded abundance fitness.
Result: 0.076

Query: I am curious: what abundance fitness value has been reported for FLTKYFNKQPYPTRREIEKLAASLWLQKSDIASHFSNKRKK [W27Q] ?
Result: -0.492

Query: What abundance fitness value was documented for this variant, FLTKYFNKQPYPTRREIEKLAASLWLWKSDIASHFLNKRKK [S36L] ?
Result: -0.316

Query: What does the data say about its abundance fitness? Entry: MLTKYFNKQPYPTRREIEKLAASLWLWKSDIASHFSNKRKK [F1M]
Result: -0.176

Query: I am curious: what abundance fitness value has been reported for FLTKYFNKSPYPTRREIEKLAASLWLWKSDIASHFSNKRKK [Q9S] ?
Result: -0.139

Query: Given FLTKYFNKQPYPTRREIEKLAASLWLWKSDIASHFSNYRKK [K38Y] , state its recorded abundance fitness.
Result: -0.433

Query: Quick one: abundance fitness of FLTKYFNKQPYPTRREIEKEAASLWLWKSDIASHFSNKRKK [L20E] ?
Result: -1.02

Query: // lookup abundance fitness for FLTKYFNKQPYPTRREIEKLAASLWLWKSDIWSHFSNKRKK [A32W]
Result: 0.113

Query: Item under review: FLTKYFNKQPYPTRREIEKLAASLWLWKSDIASMFSNKRKK [H34M] . Reported abundance fitness?
Result: 0.043

Query: Fill in: abundance fitness of FLTKYFNKQPYPTRREQEKLAASLWLWKSDIASHFSNKRKK [I17Q] is ___
Result: -0.89
